# ASSAY_METHOD_TEXT: qHTS Assay for Lipid Storage Modulators in Drosophila S3 Cells
# EXPERIMENTAL_PARAMETERS: BODIPY lipid droplet fluorescence, 18-24 h, cells fed with added oleic acid; series mostly up to 46.1 µM
# Description: NIH Molecular Libraries Probe Production Centers Network [MLPCN] NIH Chemical Genomics Center [NCGC] […] Triacsin C (Sigma-Aldrich T-4540), an inhibitor of long-chain fatty acyl CoA synthetase that blocks synthesis of triglycerides, was used as a positive control for lipid under-storage. […] Fluorescence was detected by excitation of the fluorophores with a 488-nm laser on an Acumen Explorer (TTP Lab Tech). […] Cells were detected using channel 3 (575-640 nm) with 5-um width and 100-um depth filters. […]
Among all 320,000 compounds or so, about 2,100 (0.66%) were called active. Inconclusive results (about 53%) are left out. Calls follow the shape of the dose curve; as a rule, active = well fitted inhibition curve with a large enough effect in the signal ratio, with a control signal flat (not every such curve was filed as active); inconclusive = small, poorly fitted or top-dose-only effect, or effect the other way, or a change in a side signal; inactive = flat fitted curve, though single readings scatter; the % refers to the signal ratio. The full list was thinned out, with actives kept by preference.
The reply should be one of these categories: active, inactive

Take a look at these entries with their results.
SMILES_NOTATION | DISCRETE_LABEL
N#C/C(=N\Nc1ccc(F)cc1)C(=N)N1CCCCCC1 | inactive
COc1cc(NC(=O)c2cc3ccccc3o2)ccc1NC(=O)c1ccco1 | active
CCOC(=O)c1cccc(NS(=O)(=O)Cc2ccccc2)c1 | inactive
COc1cccc(-c2ncc3ccccc3c2COC(=O)c2ccc(Br)cc2)c1 | inactive
COc1cc(NC(C)=O)ccc1NC(=O)c1cc2ccccc2o1 | inactive

Problem: Identify the outcome logged in this assay for the compound shown: COc1ccc(S(=O)(=O)Oc2ccc(C(=S)N3CCOCC3)cc2OC)cc1
Solution: inactive

Problem: Identify the outcome logged in this assay for the compound shown: Cc1cc(C)cc(NC(=O)c2ccc([N+](=O)[O-])o2)c1
Solution: inactive

Problem: Identify the outcome logged in this assay for the compound shown: COc1cc(NC(=O)c2ccccc2)ccc1NC(=O)c1cc2ccccc2o1
Solution: inactive

Problem: Identify the outcome logged in this assay for the compound shown: Cc1cccc(NC(=O)c2ccc([N+](=O)[O-])o2)c1
Solution: active

Problem: Identify the outcome logged in this assay for the compound shown: C=CCn1c(C)cc(C(=O)COC(=O)c2ccc(N)c([N+](=O)[O-])c2)c1C
Solution: inactive

Problem: Identify the outcome logged in this assay for the compound shown: COc1cc(NC(=O)c2ccc([N+](=O)[O-])o2)ccc1NC(=O)c1ccco1
Solution: active

###

# ASSAY_METHOD_TEXT: qHTS Assay for Lipid Storage Modulators in Drosophila S3 Cells;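 as to cell number change: cells counted by Cell Tracker Red CMTPX staining in the red channel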
# EXPERIMENTAL_PARAMETERS: BODIPY lipid droplet fluorescence, 18-24 h, cells fed with added oleic acid; measured here: cell count max response
Among all 320,000 compounds or so, about 2,100 (0.66%) were called active. Inconclusive results (about 53%) are left out. The full list was thinned out, with actives kept by preference.
Provide the recorded cell number change for the entries that follow.
Answers are plain numbers, in %.

Worked set:
MOLECULE | cell number change (%)
COc1ccc(CCNC(=O)COC(=O)c2sc(C)nc2C)cc1 | 13.9
COc1nc(C#N)nc(N(C)C)n1 | -4.25
CC(NC(=O)CCC(=O)NC(C)C1COc2ccccc2O1)C1COc2ccccc2O1 (configuration not stated) | -1.04
O=C1C=C(NCCN2CCOCC2)CC(c2ccccc2)C1 (configuration not stated) | -2.43
CN(C)S(=O)(=O)c1ccc(NC(=O)C2CC(=O)N(Cc3ccccc3)C2)cc1 (configuration not stated) | -10.9

For each of the molecules below, state cell number change.
1. Cc1cc(C)nc(NC(=O)c2c(Cl)cccc2Cl)n1
2. COCCN1Cc2cccc(C(=O)NC(C)CCc3ccco3)c2C1=O (configuration not stated)
3. COc1ccc(CCNC(=O)C2CCN(C(=O)c3ccc(Cl)cc3)CC2)cc1

Solution:
1: 0.843; 2: 4.03; 3: -13.5

For each of the molecules below, state cell number change.
1. COc1cc(C(=O)NCCOc2cc(C)cc(C)c2)cc(OC)c1OC
2. Cc1nc(C)c(C(=O)OCC(=O)NCCc2ccc(S(N)(=O)=O)cc2)s1
3. O=C(/C=C/c1ccccc1)NC(NC(=S)Nc1cccc(O)c1)C(Cl)(Cl)Cl (configuration not stated)
4. O=C(CCc1c[nH]c2ccccc12)N1CCCCCCC1
5. Cc1cccc(OCCC(=O)NNC(=O)c2ccoc2C)c1

Solution:
3
5.35
11.8
-19.1
-9.1

For each of the molecules below, state cell number change.
1. COc1ccc(-c2cc(C(=O)Nc3nc4ccccc4s3)c3ccccc3n2)cc1OC
2. O=C1NC2(Nc3ccccc31)C(=O)Nc1ccc(Br)cc12 (configuration not stated)
3. O=C(Cn1ccc(C(F)(F)F)n1)N/N=C/c1ccc2c(c1)OCO2
4. COc1cccc(-c2cc(C(=O)N3CCN(Cc4ccc5c(c4)OCO5)CC3)on2)c1

Solution:
1: 2.3; 2: -0.207; 3: 4.92; 4: 17

For each of the molecules below, state cell number change.
1. Cc1cc(NC(=O)COC(=O)CSc2nc3cc(Cl)ccc3n2Cc2ccccc2)no1
2. C1CCCCCC(NCCN2CCNCC2)CCCCC1
3. COCc1nnc(NS(=O)(=O)c2ccc(C)cc2)s1
4. CCOc1ccc(/C=N/n2nnnc2N)cc1O
5. COCCCNC(=O)c1cc(OC)c(OC)c(OC)c1
6. COc1cc(C(=O)NCCOc2ccccc2)cc(OC)c1OC
7. O=C(NCCCNC(=O)c1ccccc1Br)c1ccccc1Br
8. COc1ccc(Cc2nnc(SCC(=O)Nc3cc(Cl)ccc3C)[nH]c2=O)cc1

Solution:
1: -15.1; 2: 2.58; 3: -2.98; 4: 23.4; 5: -1.92; 6: -10.6; 7: -12.7; 8: -4.71

###

# ASSAY_METHOD_TEXT: qHTS Assay for Lipid Storage Modulators in Drosophila S3 Cells;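 as to cell number change: cells counted by Cell Tracker Red CMTPX staining in the red channel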
# EXPERIMENTAL_PARAMETERS: BODIPY lipid droplet fluorescence, 18-24 h, cells fed with added oleic acid; measured here: cell count max response
Hit rate of the full screen: of about 320,000 compounds, about 2,100 (0.66%) were called active. Not shown: some 53% with an inconclusive outcome. The sample as a whole holds a higher share of actives than the screen did.
ASSAY_METRIC: cell number change (%)
Numbers only, in %.

COMPOUND | cell number change / %
O=C(NCC1COc2ccccc2O1)c1cccc(S(=O)(=O)N2CCOCC2)c1 (stereo unspecified) | -18
O=C(Nc1cccc(S(=O)(=O)N2CCCCC2)c1)c1ccccn1 | 20.1
O=C(NCC1CCCCC1)c1cccc(S(=O)(=O)N2CCCC2)c1 | 3.1
CC1CN(S(=O)(=O)c2cccc(C(=O)Nc3ccccc3N3CCCCC3)c2)CC(C)O1 (stereo unspecified) | -19.1
CCOc1ncccc1C(=O)Nc1cccc(S(=O)(=O)N2CCCCC2)c1 | -15

For each of the compounds below, state cell number change.
1. CC(=O)c1sc2nsc(SCCN3CCCC3)c2c1N
2. O=C(C1CCC1)N1CCN(c2ccc(C(F)(F)F)cc2[N+](=O)[O-])CC1
3. O=C(NCC1COc2ccccc2O1)c1cccc(S(=O)(=O)N2CCCCC2)c1 (stereo unspecified)
4. CSc1ncccc1C(=O)Nc1cccc(S(=O)(=O)N2CCCCC2)c1

Solution:
1. 7.13
2. 4.32
3. -15.1
4. 0.775

For each of the compounds below, state cell number change.
1. O=[N+]([O-])c1cc(C(F)(F)F)ccc1N1CCC(O)CC1
2. CC(C)(C)NC(=O)C1CC(=O)N(CCc2ccc(F)cc2)C1 (stereo unspecified)

Solution:
9.29
23

###

# ASSAY_METHOD_TEXT: qHTS Assay for Lipid Storage Modulators in Drosophila S3 Cells
# EXPERIMENTAL_PARAMETERS: BODIPY lipid droplet fluorescence, 18-24 h, cells fed with added oleic acid; series mostly up to 46.1 µM
About 2,100 (0.66%) of roughly 320,000 compounds were called active. Not shown: some 53% with an inconclusive outcome. The call rests on the fitted dose curve; in most records, active means well fitted inhibition curve with a large enough effect in the signal ratio, with a control signal flat (not every such curve was filed as active); inconclusive means small, poorly fitted or top-dose-only effect, or effect the other way, or a change in a side signal; inactive means flat fitted curve, though single readings scatter; the % refers to the signal ratio. The entries come from a sample that favours actives as a whole.
The reply should be one of these categories: t = active, f = inactive

SMILES_NOTATION | DISCRETE_LABEL
COC(=O)c1ccccc1CSc1nsc(C)c1C#N | t
Cc1ccc(OCC(=O)NNC(=O)c2cccnc2)cc1C | f
c1ccc(C[C@H]2CNCCN2CCc2cccc3ccccc23)cc1 | f
COC(=O)c1ccccc1CSc1nsc(/C=C/N(C)C)c1C#N | f
Cc1cccc(OCC(=O)O/N=C(\N)c2ccccn2)c1C | f
COc1ccc(-c2nc(CSCC(=O)N3CCC(C(N)=O)CC3)c(C)o2)cc1OC | f

Problem: Identify the outcome logged in this assay for the compound shown: Fc1cccc(CCN2CCNC[C@H]2Cc2cccc3ccccc23)c1
Solution: t

Problem: Identify the outcome logged in this assay for the compound shown: Cc1ccc(CSc2nsc(C)c2C#N)cc1
Solution: f

Problem: Identify the outcome logged in this assay for the compound shown: CSc1cccc(NC(=O)C2CCN(S(=O)(=O)c3ccc4c(c3)NC(=O)CO4)CC2)c1
Solution: f

Problem: Identify the outcome logged in this assay for the compound shown: CCc1cc(Br)ccc1NC(=S)NCCc1ccccc1
Solution: f

Problem: Identify the outcome logged in this assay for the compound shown: Cc1cccc(NC(=O)CCNC(=O)c2ccccc2Cl)n1
Solution: f

Problem: Identify the outcome logged in this assay for the compound shown: C=CCOc1ccc2ccccc2c1CNn1cn[nH]c1=S
Solution: f
